MEASUREMENT TARGET: Ba/F3-EGFR-E746_A750del C797S cells (Homo sapiens, UniProt P00533, DEL746-750/C797S, cells depend on it)
Sequence (P00533 with tags, fused parts or gaps DEL746-750/C797S): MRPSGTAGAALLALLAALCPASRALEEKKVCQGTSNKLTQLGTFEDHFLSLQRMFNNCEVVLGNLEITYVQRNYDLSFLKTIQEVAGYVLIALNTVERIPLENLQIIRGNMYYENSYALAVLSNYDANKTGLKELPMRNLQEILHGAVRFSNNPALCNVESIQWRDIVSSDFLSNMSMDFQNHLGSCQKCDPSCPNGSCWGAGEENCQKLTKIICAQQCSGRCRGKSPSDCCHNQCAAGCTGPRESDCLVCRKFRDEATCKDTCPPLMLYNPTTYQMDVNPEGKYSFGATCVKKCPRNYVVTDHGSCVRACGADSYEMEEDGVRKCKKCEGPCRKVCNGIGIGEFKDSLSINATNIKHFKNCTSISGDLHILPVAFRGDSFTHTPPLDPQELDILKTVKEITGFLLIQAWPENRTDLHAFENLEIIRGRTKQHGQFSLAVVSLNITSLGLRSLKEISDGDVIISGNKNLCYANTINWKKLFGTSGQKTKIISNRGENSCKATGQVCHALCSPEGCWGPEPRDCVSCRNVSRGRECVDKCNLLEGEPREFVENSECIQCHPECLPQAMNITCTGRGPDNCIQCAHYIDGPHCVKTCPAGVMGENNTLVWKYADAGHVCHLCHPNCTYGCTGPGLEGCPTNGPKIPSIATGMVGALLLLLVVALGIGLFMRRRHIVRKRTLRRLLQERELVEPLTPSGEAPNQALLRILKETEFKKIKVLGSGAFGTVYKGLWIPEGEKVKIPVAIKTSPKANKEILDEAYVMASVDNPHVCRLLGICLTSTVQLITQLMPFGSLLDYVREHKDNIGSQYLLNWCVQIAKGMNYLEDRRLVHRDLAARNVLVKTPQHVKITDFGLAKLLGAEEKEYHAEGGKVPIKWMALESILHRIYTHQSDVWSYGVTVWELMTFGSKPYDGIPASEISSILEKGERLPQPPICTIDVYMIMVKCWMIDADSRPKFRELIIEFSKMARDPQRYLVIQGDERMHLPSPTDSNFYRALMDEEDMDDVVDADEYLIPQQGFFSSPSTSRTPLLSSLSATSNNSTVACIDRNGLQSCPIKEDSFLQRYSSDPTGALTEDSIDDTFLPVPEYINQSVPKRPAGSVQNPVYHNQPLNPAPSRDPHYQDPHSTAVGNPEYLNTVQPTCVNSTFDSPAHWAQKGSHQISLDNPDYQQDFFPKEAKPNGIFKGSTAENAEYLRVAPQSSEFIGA
TEST DETAILS: Ba/F3 cell survival assay, EGFR E746_A750del C797S
Type: cell-based
CONDITION PARAMETERS: aquired resistance space; Table 8; read-out: BA/F3 (EGFR E746_A750del C797S) IC50

| MOLECULE | GI50 |
| --- | --- |
| COc1c(Cl)cccc1Nc1c(-c2ccncc2OCCC2CCCCO2)[nH]c2c1C(=O)N[C@H](C)C2 (single isomer, unassigned) [Example 87] | 0.804 nM |
| COc1c(Cl)cccc1Nc1c(-c2ccncc2OCCC(C)OC)[nH]c2c1C(=O)N[C@H](C)C2 (single isomer, unassigned) [Example 121] | 0.384 nM |
| Cc1c(Cl)cccc1Nc1c(-c2ccncc2OCC2COCCO2)[nH]c2c1C(=O)NCC2C (single isomer, unassigned) [Example 67] | 0.581 nM |
| COc1c(Cl)cccc1Nc1c(-c2ccncc2OCC2COCCO2)[nH]c2c1C(=O)NCC2C (single isomer, unassigned) [Example 34] | 0.795 nM |
| COCC(C)Oc1cnccc1-c1[nH]c2c(c1Nc1cccc(Cl)c1OC)C(=O)N[C@@H]1CCC[C@H]21 (single isomer, unassigned) [Example 51] | 0.564 nM |
| COc1c(Cl)cccc1Nc1c(-c2ccncc2OC[C@@H]2CCCO2)[nH]c2c1C(=O)NC1(CC1)C2 [Example 113] | 1.1 nM |

###

MEASUREMENT TARGET: Ba/F3-EGFR-L858R cells (Homo sapiens, UniProt P00533, L858R, cells depend on it)
Sequence (P00533 whole entry L858R): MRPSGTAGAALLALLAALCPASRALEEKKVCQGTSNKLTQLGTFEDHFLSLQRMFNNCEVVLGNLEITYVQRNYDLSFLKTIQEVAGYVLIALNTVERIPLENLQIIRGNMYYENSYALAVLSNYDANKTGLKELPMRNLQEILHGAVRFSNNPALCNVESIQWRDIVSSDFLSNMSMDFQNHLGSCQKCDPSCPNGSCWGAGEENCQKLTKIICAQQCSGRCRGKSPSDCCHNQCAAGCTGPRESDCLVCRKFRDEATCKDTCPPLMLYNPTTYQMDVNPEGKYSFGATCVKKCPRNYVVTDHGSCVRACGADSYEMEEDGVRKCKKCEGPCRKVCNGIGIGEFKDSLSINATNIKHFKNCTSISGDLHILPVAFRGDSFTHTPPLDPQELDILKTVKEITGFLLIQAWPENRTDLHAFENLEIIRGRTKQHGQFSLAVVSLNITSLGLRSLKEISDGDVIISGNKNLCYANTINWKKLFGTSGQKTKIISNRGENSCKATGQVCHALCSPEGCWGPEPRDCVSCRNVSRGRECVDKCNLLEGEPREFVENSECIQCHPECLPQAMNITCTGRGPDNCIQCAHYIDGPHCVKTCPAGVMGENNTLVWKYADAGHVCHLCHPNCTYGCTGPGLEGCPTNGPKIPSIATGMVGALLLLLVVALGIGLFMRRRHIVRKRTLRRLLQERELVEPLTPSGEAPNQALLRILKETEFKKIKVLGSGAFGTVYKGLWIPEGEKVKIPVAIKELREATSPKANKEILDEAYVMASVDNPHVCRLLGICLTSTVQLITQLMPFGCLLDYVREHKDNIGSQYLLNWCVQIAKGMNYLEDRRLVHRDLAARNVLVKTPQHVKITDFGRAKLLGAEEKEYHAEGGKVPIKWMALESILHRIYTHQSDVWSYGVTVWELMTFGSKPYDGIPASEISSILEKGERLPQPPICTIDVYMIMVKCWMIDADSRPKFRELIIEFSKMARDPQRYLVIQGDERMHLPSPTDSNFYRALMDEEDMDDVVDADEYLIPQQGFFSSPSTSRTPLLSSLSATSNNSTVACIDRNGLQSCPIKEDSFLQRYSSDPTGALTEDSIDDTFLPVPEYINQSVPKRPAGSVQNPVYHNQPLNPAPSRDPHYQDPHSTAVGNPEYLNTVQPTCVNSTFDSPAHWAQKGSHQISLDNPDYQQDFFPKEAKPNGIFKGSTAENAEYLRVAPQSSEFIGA
TEST DETAILS: Ba/F3 cell survival assay, EGFR L858R
Assay type: cell-based
CONDITION PARAMETERS: classical activating and rare EGFR mutations; Table 7; read-out: BA/F3 (EGFR L858R) IC50
// GI50 lookup, one value per entry

| COMPOUND | GI50 (nM) |
| --- | --- |
| COc1c(Cl)cccc1Nc1c(-c2ccncc2OCCC(C)OC)[nH]c2c1C(=O)N[C@H](C)C2 (single isomer, unassigned) | 1.17 |
| COc1c(Cl)cccc1Nc1c(-c2ccncc2OCCC2CCCCO2)[nH]c2c1C(=O)N[C@H](C)C2 (single isomer, unassigned) | 1.29 |
| Cc1c(Cl)cccc1Nc1c(-c2ccncc2OCC2COCCO2)[nH]c2c1C(=O)NCC2C (single isomer, unassigned) | 3.16 |

###

// GI50 lookup, one value per entry
MEASUREMENT TARGET: Ba/F3-EGFR-D770_N771insSVD C797S cells (Homo sapiens, UniProt P00533, DUP768-770/C797S, cells depend on it)
Sequence (P00533 with tags, fused parts or gaps DUP768-770/C797S): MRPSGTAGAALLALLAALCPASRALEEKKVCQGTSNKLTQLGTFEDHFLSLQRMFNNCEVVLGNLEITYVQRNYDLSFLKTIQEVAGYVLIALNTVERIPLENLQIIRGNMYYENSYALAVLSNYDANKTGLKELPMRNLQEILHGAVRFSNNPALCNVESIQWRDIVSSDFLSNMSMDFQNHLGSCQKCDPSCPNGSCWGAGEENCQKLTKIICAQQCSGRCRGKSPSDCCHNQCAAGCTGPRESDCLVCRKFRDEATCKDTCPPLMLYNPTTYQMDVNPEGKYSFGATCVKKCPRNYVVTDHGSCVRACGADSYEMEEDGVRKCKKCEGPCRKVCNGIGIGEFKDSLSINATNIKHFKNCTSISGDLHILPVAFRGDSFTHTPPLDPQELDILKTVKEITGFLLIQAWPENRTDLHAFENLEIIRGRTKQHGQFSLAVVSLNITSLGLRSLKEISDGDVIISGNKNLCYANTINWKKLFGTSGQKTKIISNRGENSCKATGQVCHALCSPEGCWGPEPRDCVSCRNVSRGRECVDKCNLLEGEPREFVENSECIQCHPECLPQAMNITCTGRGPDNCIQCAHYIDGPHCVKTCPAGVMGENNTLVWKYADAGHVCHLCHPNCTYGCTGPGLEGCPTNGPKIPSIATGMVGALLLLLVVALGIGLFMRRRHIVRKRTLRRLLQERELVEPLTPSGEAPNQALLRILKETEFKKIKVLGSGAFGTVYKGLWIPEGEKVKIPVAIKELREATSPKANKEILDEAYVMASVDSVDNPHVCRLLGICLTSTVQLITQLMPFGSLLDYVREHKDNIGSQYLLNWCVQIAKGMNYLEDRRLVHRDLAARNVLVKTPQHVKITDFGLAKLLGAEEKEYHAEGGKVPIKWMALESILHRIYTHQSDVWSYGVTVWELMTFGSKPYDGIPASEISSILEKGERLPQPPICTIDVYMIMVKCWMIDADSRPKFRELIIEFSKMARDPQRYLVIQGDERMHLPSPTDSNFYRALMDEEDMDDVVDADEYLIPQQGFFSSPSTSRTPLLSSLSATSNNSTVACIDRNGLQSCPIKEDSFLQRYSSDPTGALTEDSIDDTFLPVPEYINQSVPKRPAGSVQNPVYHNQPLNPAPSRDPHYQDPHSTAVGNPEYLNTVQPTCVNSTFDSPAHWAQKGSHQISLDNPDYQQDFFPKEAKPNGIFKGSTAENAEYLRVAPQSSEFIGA
TEST DETAILS: Ba/F3 cell survival assay, EGFR D770_N771insSVD C797S
Type: cell-based
CONDITION PARAMETERS: aquired resistance space; Table 8; read-out: BA/F3 (EGFR 0770_N771 insSVD C797S) IC50

| COMPOUND | GI50 |
| --- | --- |
| Cc1c(Cl)cccc1Nc1c(-c2ccncc2OCC2COCCO2)[nH]c2c1C(=O)NCC2C (single isomer, unassigned) | 40.6 nM |
| COc1c(Cl)cccc1Nc1c(-c2ccncc2OCCC(C)OC)[nH]c2c1C(=O)N[C@H](C)C2 (single isomer, unassigned) | 21.7 nM |
| COc1c(Cl)cccc1Nc1c(-c2ccncc2OCCC2CCCCO2)[nH]c2c1C(=O)N[C@H](C)C2 (single isomer, unassigned) | 22.1 nM |
| COc1c(Cl)cccc1Nc1c(-c2ccncc2OCC2COCCO2)[nH]c2c1C(=O)NCC2C (single isomer, unassigned) | 35.5 nM |
| COc1c(Cl)cccc1Nc1c(-c2ccncc2OC[C@@H]2CCCO2)[nH]c2c1C(=O)NC1(CC1)C2 | 71.4 nM |
| COCC(C)Oc1cnccc1-c1[nH]c2c(c1Nc1cccc(Cl)c1OC)C(=O)N[C@@H]1CCC[C@H]21 (single isomer, unassigned) | 19.5 nM |
